target: T1, TRAIL-Receptor 1-Fc (UniProt O00220 109-239, limits assumed); experiment: Streptactin-ELISA, supernatant immobilized, constant concentration of TRAIL-Receptor 1-Fc (FIG. 14A)
T1 construct: Bought from R&D Systems; also called TRAILR1; not shown: Fc part of the bought fusion protein
T1 sequence (O00220 109-239 limits assumed): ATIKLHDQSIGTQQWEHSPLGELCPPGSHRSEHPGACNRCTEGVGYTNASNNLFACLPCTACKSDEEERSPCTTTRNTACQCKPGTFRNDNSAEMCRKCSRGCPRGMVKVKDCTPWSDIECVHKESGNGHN
quantity-name: binding result

binder	quantity-name	result
TRAILR2mut-A-CCSPD (ligand, Used as HEK293 supernatant) QRVAAHITGTRGRSNTLSSPNSKNEKALGRKINSWESSRSGHSFLSNLHLRNGELVIHEKGFYYIYSQTQFKFREEIKENTKNDKQMVQYIYKYTSYPDPILLMKSARNSCWSKDAEYGLYSIYQGGIFELKENDRIFVSVTNERLLQMDHEASFFGAFLVGSSGSSGSSGSGLPDVASLRQQVEALQGQVQHLQAAFSQYKKVELFPNGPSSSSSSAWSHPQFEK	binding result	no binding
TRAILR2mut-D-CCSPD (ligand, Used as HEK293 supernatant) QRVAAHITGTRGRSNTLSSPNSKNEKALGRKINSWESSRSGHSFLSNLHLRNGELVIHEKGFYYIYSQTQFKFREEIKENTKNDKQMVQYIYKYTSYPDPILLMKSARNSCWSKDAEYGLYSIYQGGIFELKENDRIFVSVTNERLLQMDHEASFFGAFLVGSGLPDVASLRQQVEALQGQVQHLQAAFSQYKKVELFPNGPSSSSSSAWSHPQFEK	binding result	no binding
TRAILR2mut-D-SPD (ligand, Used as HEK293 supernatant) QRVAAHITGTRGRSNTLSSPNSKNEKALGRKINSWESSRSGHSFLSNLHLRNGELVIHEKGFYYIYSQTQFKFREEIKENTKNDKQMVQYIYKYTSYPDPILLMKSARNSCWSKDAEYGLYSIYQGGIFELKENDRIFVSVTNERLLQMDHEASFFGAFLVGSGLPDVASLRQQVEALQGQVQHLQAAFSQYKKVELFPNGQSVGEKIFKTAGFVKPFTEAQLLCTQAGGQLASPRSAAENAALQQLVVAKNEAAFLSMTDSKTEGKFTYPTGESLVYSNWAPGEPNDDGGSEDCVEIFTNGKWNDRACGEKRLVVCEFGGSPSSSSSSAWSHPQFEK	binding result	no binding

Reference source for all entries: patent US20150126710A1
